details: day 32, low dose; nominal ratio 0.3×
Decide using WB conc. factor (lab / field) D 32 Low: a value greater than or equal to 0.6 is true (1), a smaller one is false (0).

Exam item: decide whether the reported WB conc. factor (lab / field) D 32 Low for Clc1ccc(COC(Cn2ccnc2)c2ccc(Cl)cc2Cl)c(Cl)c1 (stereo not drawn) [Miconazole, reference compound] is at least 0.6.
true (1)

Exam item: decide whether the reported WB conc. factor (lab / field) D 32 Low for CCOC(=O)C1=C(COCCN)NC(C)=C(C(=O)OC)C1c1ccccc1Cl (stereo not drawn) [Amlodipine, reference compound] is at least 0.6.
true (1)

Exam item: decide whether the reported WB conc. factor (lab / field) D 32 Low for CC[C@H]1OC(=O)[C@H](C)[C@@H](O[C@H]2C[C@@](C)(OC)[C@@H](O)[C@H](C)O2)[C@H](C)[C@@H](O[C@@H]2O[C@H](C)C[C@H](N(C)C)[C@H]2O)[C@](C)(O)C[C@@H](C)CN(C)[C@H](C)[C@@H](O)[C@]1(C)O [Azithromycin, reference compound] is at least 0.6.
true (1)

Exam item: decide whether the reported WB conc. factor (lab / field) D 32 Low for CNCCN1C(=O)[C@H](OC(C)=O)[C@H](c2ccc(OC)cc2)Sc2ccccc21 [Desmethyl-diltiazem] is at least 0.6.
true (1)

Exam item: decide whether the reported WB conc. factor (lab / field) D 32 Low for CN(C)C(=N)N=C(N)N [Metformin, reference compound] is at least 0.6.
false (0)

Exam item: decide whether the reported WB conc. factor (lab / field) D 32 Low for CN(C)CCC=C1c2ccccc2CCc2ccccc21 [Amitriptyline, reference compound] is at least 0.6.
false (0)

Exam item: decide whether the reported WB conc. factor (lab / field) D 32 Low for COc1ccc([C@@H]2Sc3ccccc3N(CCN(C)C)C(=O)[C@@H]2OC(C)=O)cc1 [Diltiazem, reference compound] is at least 0.6.
true (1)

Exam item: decide whether the reported WB conc. factor (lab / field) D 32 Low for CN(C)CCOC(c1ccccc1)c1ccccc1 [Diphen hydramine, reference compound] is at least 0.6.
true (1)

Exam item: decide whether the reported WB conc. factor (lab / field) D 32 Low for O=S(=O)(O)C(F)(F)C(F)(F)C(F)(F)C(F)(F)C(F)(F)C(F)(F)C(F)(F)C(F)(F)F [PFOS] is at least 0.6.
false (0)

Exam item: decide whether the reported WB conc. factor (lab / field) D 32 Low for O=C(O)C(F)(F)C(F)(F)C(F)(F)C(F)(F)C(F)(F)C(F)(F)C(F)(F)C(F)(F)C(F)(F)F [PFDA] is at least 0.6.
true (1)

Exam item: decide whether the reported WB conc. factor (lab / field) D 32 Low for CNCCC(Oc1ccc(C(F)(F)F)cc1)c1ccccc1 (stereo not drawn) [Fluoxetine, reference compound] is at least 0.6.
false (0)

Exam item: decide whether the reported WB conc. factor (lab / field) D 32 Low for NCCC(Oc1ccc(C(F)(F)F)cc1)c1ccccc1 (stereo not drawn) [Norfluoxetine] is at least 0.6.
false (0)

----------
settings: day 32, high dose; nominal ratio 10×
For each of the compounds below, state its WB conc. factor (lab / field) D 32 High.

Read the entry CNCCC(Oc1ccc(C(F)(F)F)cc1)c1ccccc1 (stereo not shown) [Fluoxetine, reference compound] and write its reported WB conc. factor (lab / field) D 32 High.
4.00

Read the entry O=S(=O)(O)C(F)(F)C(F)(F)C(F)(F)C(F)(F)C(F)(F)C(F)(F)C(F)(F)C(F)(F)F and write its reported WB conc. factor (lab / field) D 32 High.
4.01

Read the entry CC[C@H]1OC(=O)[C@H](C)[C@@H](O[C@H]2C[C@@](C)(OC)[C@@H](O)[C@H](C)O2)[C@H](C)[C@@H](O[C@@H]2O[C@H](C)C[C@H](N(C)C)[C@H]2O)[C@](C)(O)C[C@@H](C)CN(C)[C@H](C)[C@@H](O)[C@]1(C)O [Azithromycin, reference compound] and write its reported WB conc. factor (lab / field) D 32 High.
17.1

Read the entry CNCCN1C(=O)[C@H](OC(C)=O)[C@H](c2ccc(OC)cc2)Sc2ccccc21 and write its reported WB conc. factor (lab / field) D 32 High.
108

Read the entry NCCC(Oc1ccc(C(F)(F)F)cc1)c1ccccc1 (stereo not shown) and write its reported WB conc. factor (lab / field) D 32 High.
5.59

Read the entry O=C(Nc1ccc(Cl)cc1)Nc1ccc(Cl)c(Cl)c1 and write its reported WB conc. factor (lab / field) D 32 High.
1.34

Read the entry COc1ccc([C@@H]2Sc3ccccc3N(CCN(C)C)C(=O)[C@@H]2OC(C)=O)cc1 [Diltiazem, reference compound] and write its reported WB conc. factor (lab / field) D 32 High.
63.8

Read the entry Clc1ccc(COC(Cn2ccnc2)c2ccc(Cl)cc2Cl)c(Cl)c1 (stereo not shown) [Miconazole, reference compound] and write its reported WB conc. factor (lab / field) D 32 High.
7.39

Read the entry CCOC(=O)C1=C(COCCN)NC(C)=C(C(=O)OC)C1c1ccccc1Cl (stereo not shown) [Amlodipine, reference compound] and write its reported WB conc. factor (lab / field) D 32 High.
19.5

Read the entry Cc1ccc(C)c(OCCCC(C)(C)C(=O)O)c1 [Gemfibrozil, reference compound] and write its reported WB conc. factor (lab / field) D 32 High.
2.57
